Exercise: for every item that follows, state its recorded self-cleavage.
B1: HDV Ribozyme (parent)
chain: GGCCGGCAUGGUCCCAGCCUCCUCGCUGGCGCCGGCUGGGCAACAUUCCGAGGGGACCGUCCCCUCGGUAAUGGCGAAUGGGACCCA

variants of: B1; experiment: self-cleavage, relative activity (ratio to wild type); higher = more cleavage; co-transcriptional
One number for each entry.

Examples from the recorded data:
change: C24U C62A
measurement-name: self-cleavage
assay-result: 0.471
//
change: C19U C44G
measurement-name: self-cleavage
assay-result: 0.0519
//
change: C4G C64A
measurement-name: self-cleavage
assay-result: 0.219
//
change: C14G C64U
measurement-name: self-cleavage
assay-result: 0.516
//
change: G10A G28A
measurement-name: self-cleavage
assay-result: 0.0336
//
change: C64G G74C
measurement-name: self-cleavage
assay-result: 0.244

For every item below, please supply its self-cleavage.
1. U69G G73C
2. C26A A51C
3. C13U G67C
4. C3A C21U
5. G2U A51U
6. G35C U46C
7. A16U G31U

0.665
1.13
0.374
0.0314
0.0799
0.185
0.225

Here are 5 variants. What values of self-cleavage were reported for them?
1. C62U C75G
2. G17U C84U
3. C41A C64U
4. G10C G40C
5. G10C C13A

1: 0.406; 2: 0.487; 3: 0.831; 4: 0.264; 5: 0

# return self-cleavage for each item in the list
1. C14G U60G
2. C48G C64A
3. C48G C61A
4. G1C C57U

1: 0.511; 2: 0.344; 3: 0.927; 4: 0.252

Origin of values: the RNAGym collection of RNA variant scans (doi:10.7554/elife.80360)
